Biological target: RET^WT (Homo sapiens, UniProt P07949)
Sequence (P07949 658-1114): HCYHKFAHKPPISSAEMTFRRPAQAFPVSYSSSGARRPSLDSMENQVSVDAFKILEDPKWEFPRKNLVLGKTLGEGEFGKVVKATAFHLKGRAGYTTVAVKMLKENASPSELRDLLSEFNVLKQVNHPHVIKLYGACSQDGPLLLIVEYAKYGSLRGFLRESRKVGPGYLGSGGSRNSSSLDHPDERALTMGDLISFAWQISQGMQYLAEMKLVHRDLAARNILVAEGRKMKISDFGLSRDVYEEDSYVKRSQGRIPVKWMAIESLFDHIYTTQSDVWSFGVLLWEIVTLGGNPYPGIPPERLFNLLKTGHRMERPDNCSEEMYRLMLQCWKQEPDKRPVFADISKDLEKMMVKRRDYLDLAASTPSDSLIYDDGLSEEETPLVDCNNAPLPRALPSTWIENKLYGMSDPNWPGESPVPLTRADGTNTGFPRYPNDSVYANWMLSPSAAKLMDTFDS
assay.endpoint: IC50 (nM)
Supply the numeric figure in nM, leaving out any unit text.

Known results for compounds:
{"columns": ["compound", "experimental.system", "unit", "IC50"],
 "data": [
  ["CS(=O)(=O)c1ccc(CN2C3CC2CN(c2ccc(-c4cc(-c5cnn(C(F)(F)F)c5)cn5ncc(C#N)c45)cn2)C3)cc1 [Example 84]", "RET^WT (Homo sapiens, UniProt P07949)", "nM", 0.309],
  ["COc1ccc(CN2CCN(c3ccc(-c4cc(N5CC(C#N)C5)cn5ncc(C#N)c45)cn3)CC2)cn1 [Example 32]", "RET^WT (Homo sapiens, UniProt P07949)", "nM", 0.8],
  ["COc1ccc(CN2CCN(c3ccc(-c4cc(N5CCOCC5)cn5ncc(C#N)c45)cn3)CC2)cn1 [Example 19]", "RET^WT (Homo sapiens, UniProt P07949)", "nM", 0.636],
  ["Cn1cc(-c2cc(-c3ccc(N4CCN(C(=O)C5=CCCC5)CC4)nc3)c3c(C#N)cnn3c2)cn1 [Example 2]", "RET^WT (Homo sapiens, UniProt P07949)", "nM", 0.108],
  ["CS(=O)(=O)c1ccc(CN2C3CC2CN(c2ccc(-c4cc(-c5cnn(C(F)F)c5)cn5ncc(C#N)c45)cn2)C3)cc1 [Example 45]", "RET^WT (Homo sapiens, UniProt P07949)", "nM", 0.159],
  ["COc1ccc(CN2CCN(c3ccc(-c4cc(N5CC(OC)C5)cn5ncc(C#N)c45)cn3)CC2)cn1 [Example 33]", "RET^WT (Homo sapiens, UniProt P07949)", "nM", 0.944]
]}

// recorded IC50 for CSc1cc(CN2C3CC2CN(c2ccc(-c4cc(-c5cnn(C(F)F)c5)cn5ncc(C#N)c45)cn2)C3)ccn1 [Example 72] : 0.147

The recorded IC50 for entry CN(C)C(=O)Cn1cc(-c2cc(-c3ccc(N4CCN(Cc5ccc(S(C)(=O)=O)cc5)CC4)nc3)c3c(C#N)cnn3c2)cn1 [Example 54] equals 1.07

// recorded IC50 for CSc1ccc(CN2C3CC2CN(c2ccc(-c4cc(-c5cnn(C(F)F)c5)cn5ncc(C#N)c45)cn2)C3)cc1 [Example 82] : 0.136

Item: CS(=O)(=O)c1ccccc1CN1C2CC1CN(c1ccc(-c3cc(-c4cnn(C(F)F)c4)cn4ncc(C#N)c34)cn1)C2 [Example 56] | IC50: 0.08

The value of IC50 measured for the compound Cn1cc(-c2cc(-c3ccc(N4CC5CC(C4)N5Cc4ccc(S(C)(=O)=O)cc4)nc3)c3c(C#N)cnn3c2)cn1 [Example 25] turned out to be 0.148

Measured IC50, COC/C=C/C(=O)N1C2CC1CN(c1ccc(-c3cc(-c4cnn(C)c4)cn4ncc(C#N)c34)cn1)C2 [Example 61] : 0.779

So, CS(=O)(=O)c1cccc(CN2C3CC2CN(c2ccc(-c4cc(-c5cnn(C(F)F)c5)cn5ncc(C#N)c45)cn2)C3)c1 [Example 55] ? Its IC50 was 0.109
